Entries and their pIC50
Target: human liver Cat B (Homo sapiens)
Assay: Cathepsin B inhibition assay
Settings: read-out: Cat B IC50; mean ± SE
Formally, pIC50 is defined as -log10 of the concentration c, with c in mol/L.

Check out these entries, answers already filled in.
CCC[C@H](NC(=O)[C@H](Cc1ccccc1)NC(=O)c1ccccc1)C(=O)N[C@H](C(=O)C(=O)NC1CCCCC1)C(C)C [Compound 24]: 7.17
CC(C)[C@H](NC(=O)[C@H](C)NC(=O)[C@@H](N1Cc2ccccc2C1=O)C(C)(C)C)C(=O)C(=O)NCc1ccccc1 [Compound 28]: 6.37
CC(C)[C@H](NC(=O)[C@H](C)NC(=O)[C@@H](NC(=O)c1ccnc2ccccc12)C(C)(C)C)C(=O)C(=O)NCc1ccccc1 [Compound 27]: 5.47

Looking up CC(C)[C@H](NC(=O)[C@H](C)NC(=O)[C@@H](NC(=O)c1ccccc1)C(C)(C)C)C(=O)C(=O)NCC(=O)N1CCc2ccccc2C1 [Compound 51] , I see its pIC50 listed as 6.29

Looking up CNC(=O)C(=O)[C@@H](NC(=O)[C@H](C)NC(=O)[C@@H](NC(=O)c1ccccc1)C(C)(C)C)C(C)C [Compound 37] , I see its pIC50 listed as 6.31

Looking up CC(C)[C@H](NC(=O)[C@H](C)NC(=O)[C@@H](NC(=O)c1ccccc1)C(C)(C)c1ccccc1)C(=O)C(=O)NCc1ccccc1 [Compound 23] , I see its pIC50 listed as 6.35

====

Assay: Measurement of LogD7.4 (n-octanol/PBS shake)
Assay type: physicochemical
Details: pH 7.4; versus compound 22; read-out: reduction of measured log D on replacing cyclohexyl (22) by cyclopropyl
metric-name: logD

Looking up CC(C)[C@H](NC(=O)[C@H](C)NC(=O)[C@@H](NC(=O)c1ccccc1)C(C)(C)C)C(=O)C(=O)NC1CC1 [Compound 35] , I see its logD listed as ~1.5

====

Molecular target: human liver Cat B (Homo sapiens, UniProt P07858)
Test: Cathepsin B inhibition assay
Conditions: read-out: Cat B IC50; mean ± SE
metric-name: pIC50
Formally, pIC50 is defined as -log10 of the concentration c, with c in mol/L.

CC(C)[C@H](NC(=O)[C@H](C)NC(=O)[C@@H](NC(=O)c1ccccc1)C(C)(C)C)C(=O)C(N)=O: 7.70
CC(C)[C@H](NC(=O)[C@H](C)NC(=O)[C@@H](NC(=O)c1cccc2ccccc12)C(C)(C)C)C(=O)C(=O)NC1CCCCC1: 6.14

Entry `CC(C)[C@H](NC(=O)[C@H](C)NC(=O)[C@@H](NC(=O)c1ccccc1)C(C)(C)C)C(=O)C(=O)N[C@H](C)c1ccccc1` , human liver Cat B (Homo sapiens, UniProt P07858) data, pIC50 value: 6.34

Entry `CC(C)[C@H](NC(=O)[C@H](C)NC(=O)[C@@H](NC(=O)c1ccccc1)C(C)(C)C)C(=O)C(=O)NC1CCCCC1` , human liver Cat B (Homo sapiens, UniProt P07858) data, pIC50 value: 6.42

Entry `CC(C)[C@H](NC(=O)[C@H](C)NC(=O)[C@@H](NC(=O)c1ccnc2ccccc12)C(C)(C)C)C(=O)C(=O)NC1CCCCC1` , human liver Cat B (Homo sapiens, UniProt P07858) data, pIC50 value: 6.20

Where do the numbers come from? From paper PMC4257840.
